target: Proto-oncogene tyrosine-protein kinase receptor Ret (Homo sapiens, UniProt P07949); test: Inhibition of recombinant RET (unknown origin) using poly (Glu,Tyr) 4:1 substrate after 60 mins by ELISA
Sequence (P07949 whole entry): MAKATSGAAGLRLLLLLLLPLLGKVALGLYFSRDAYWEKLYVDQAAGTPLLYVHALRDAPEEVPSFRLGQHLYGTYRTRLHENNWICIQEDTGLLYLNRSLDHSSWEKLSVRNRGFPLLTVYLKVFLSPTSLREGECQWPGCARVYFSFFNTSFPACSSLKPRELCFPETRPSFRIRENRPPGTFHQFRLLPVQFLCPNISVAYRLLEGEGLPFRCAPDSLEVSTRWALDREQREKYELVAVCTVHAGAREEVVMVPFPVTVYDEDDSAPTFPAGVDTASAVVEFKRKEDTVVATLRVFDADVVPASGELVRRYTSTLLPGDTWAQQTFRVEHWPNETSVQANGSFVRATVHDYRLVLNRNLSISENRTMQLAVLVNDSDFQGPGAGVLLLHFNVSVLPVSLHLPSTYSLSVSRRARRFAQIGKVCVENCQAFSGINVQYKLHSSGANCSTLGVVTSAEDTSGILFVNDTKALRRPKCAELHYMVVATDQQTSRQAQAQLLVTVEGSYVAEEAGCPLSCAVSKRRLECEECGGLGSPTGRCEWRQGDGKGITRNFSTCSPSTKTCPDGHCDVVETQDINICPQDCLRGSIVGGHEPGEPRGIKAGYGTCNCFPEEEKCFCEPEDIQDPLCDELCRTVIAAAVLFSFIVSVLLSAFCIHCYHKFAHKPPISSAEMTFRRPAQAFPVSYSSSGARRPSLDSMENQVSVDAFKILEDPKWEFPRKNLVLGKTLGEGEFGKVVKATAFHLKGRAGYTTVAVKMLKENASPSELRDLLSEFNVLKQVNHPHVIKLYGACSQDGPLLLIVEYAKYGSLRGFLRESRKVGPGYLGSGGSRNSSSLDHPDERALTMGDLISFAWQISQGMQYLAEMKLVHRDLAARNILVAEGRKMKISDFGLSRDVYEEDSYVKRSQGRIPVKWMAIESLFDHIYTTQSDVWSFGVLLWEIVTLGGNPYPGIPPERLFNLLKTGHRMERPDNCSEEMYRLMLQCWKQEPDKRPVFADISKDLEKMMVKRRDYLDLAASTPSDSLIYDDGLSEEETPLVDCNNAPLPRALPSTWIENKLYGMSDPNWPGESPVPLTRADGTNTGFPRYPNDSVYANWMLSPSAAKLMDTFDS
pIC50: −log10 of the molar value.
Endpoint Name: pIC50

- Line Notation: "CC(C)n1nc(C#Cc2ccccc2)c2c(N)ncnc21"
  Target Of Assay: "Proto-oncogene tyrosine-protein kinase receptor Ret (Homo sapiens, UniProt P07949)"
  Endpoint Name: "pIC50"
  Observed: 7.25
